Recorded pEC50 for the following molecules
- SYSTEM NAME: PBRM1BD5 (Homo sapiens, UniProt P40337+Q86U86)
- Construct: GST (TEV site) (N); His6 (TEV site) (N, cleaved yes)
- Sequence (Q86U86 645-766): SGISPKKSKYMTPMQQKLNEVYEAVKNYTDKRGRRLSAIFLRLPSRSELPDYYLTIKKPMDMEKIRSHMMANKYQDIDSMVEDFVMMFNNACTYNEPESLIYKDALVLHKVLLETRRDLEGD
- Sequence (P40337 54-213): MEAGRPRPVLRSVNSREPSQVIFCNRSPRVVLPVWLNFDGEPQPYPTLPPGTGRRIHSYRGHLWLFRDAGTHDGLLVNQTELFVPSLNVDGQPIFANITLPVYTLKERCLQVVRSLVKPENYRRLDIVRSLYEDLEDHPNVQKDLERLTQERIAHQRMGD
- Sequence (Q15369 17-112 partner): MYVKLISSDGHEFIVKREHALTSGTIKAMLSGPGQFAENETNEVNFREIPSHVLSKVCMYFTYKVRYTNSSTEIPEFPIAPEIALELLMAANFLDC
- Sequence (Q15370 1-104 partner): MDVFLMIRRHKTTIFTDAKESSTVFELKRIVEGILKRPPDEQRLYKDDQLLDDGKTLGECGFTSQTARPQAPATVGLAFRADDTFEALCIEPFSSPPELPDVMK
- TEST SUMMARY: TR-FRET ternary complex affinity and cooperativity, PBRM1
- PROTOCOL CONDITIONS: TR-FRET competition for PBRM1BD5, + VCB; mean ± SD; read-out: TR-FRET Ternary PBRM1BD EC50 (PROTAC + VCB)
Scale for pEC50: -log10 of concentration given in mol/L; no unit attached.

Observe how each entry below is paired with its result.
| STRUCTURE STRING | MEASURE | QUANTITATIVE RESULT |
| --- | --- | --- |
| Cc1ncsc1-c1ccc([C@H](COCCCN2CCC(c3ccc4c(c3)n(C3CCCC3)c3nc(=O)c5c(Br)cccc5n43)CC2)NC(=O)[C@@H]2C[C@@H](O)CN2C(=O)[C@@H](NC(=O)C2(F)CC2)C(C)(C)C)cc1 | pEC50 | 8.52 |
| Cc1ncsc1-c1ccc([C@H](CCCCN2CCC(c3ccc4c(c3)n(C3CCCC3)c3nc(=O)c5c(Br)cccc5n43)CC2)NC(=O)[C@@H]2C[C@@H](O)CN2C(=O)[C@@H](NC(=O)C2(F)CC2)C(C)(C)C)cc1 | pEC50 | 8.52 |
| Nc1cccc2c1c(=O)nc1n(C3CCCC3)c3ccccc3n21 | pEC50 | 6.02 |
| Cc1ncsc1-c1ccc([C@H](CC[C@H](C)CCN2CCC(c3ccc4c(c3)n(C3CCCC3)c3nc(=O)c5c(Br)cccc5n43)CC2)NC(=O)[C@@H]2C[C@H](O)CN2C(=O)[C@@H](NC(=O)C2(F)CC2)C(C)(C)C)cc1 | pEC50 | 7.11 |
| Cc1ncsc1-c1ccc(CNC(=O)[C@@H]2C[C@H](O)CN2C(=O)[C@@H](NC(=O)C2(F)CC2)C(C)(C)C)c(OCCN2CCC(c3ccc4c(c3)n(C3CCCC3)c3nc(=O)c5c(Br)cccc5n43)CC2)c1 | pEC50 | 7.40 |

*Q* GET /values?readout=pEC50&item= O=c1nc2n(C3CCCC3)c3ccccc3n2c2cccc(Br)c12
*A* 6.88
